Origin of the recorded values: ChEMBL document CHEMBL5370544

# Tested on: SK-HEP1
# experiment notes: Antiproliferative activity against human SK-HEP1 cells assessed as inhibition of cell growth measured after 72 hrs by MTT assay
# Assay type: functional, cell-based
# test context: SK-HEP1, 72 h
Consider the following compounds; for each one, report its pIC50.
// pIC50 is dimensionless: -log10 of concentration (M)

[in] Look at this compound and give its reported pIC50. `CC(=O)Oc1ccccc1/C=C/c1nccc2ccccc12`
[out] 5.38

[in] Would you mind telling me what pIC50 value was observed for `COc1cccc(/C=C/c2nccc3ccccc23)c1` ?
[out] 4.48

[in] // lookup pIC50 for `Nc1ccccc1/C=C/c1nccc2ccccc12`
[out] 4.58

[in] So what does the record say about pIC50 for `C#Cc1ccccc1/C=C/c1nccc2ccccc12` ?
[out] 4.41

[in] I'd like to know its pIC50. The compound in question is `COc1ccccc1/C=C/c1nccc2ccccc12`
[out] 4.42

[in] Field request: pIC50 | item: `Oc1ccccc1/C=C/c1nccc2ccccc12`
[out] 4.77

[in] // lookup pIC50 for `CC(=O)Oc1ccc(/C=C/c2nccc3ccccc23)cc1`
[out] 4.63
